assayed-system: TDO2 (Homo sapiens)
Construct: decreased levels of NFK in SW48 cells (high TDO expressing cells)
measurement-notes: TDO2 cell assay (NFK GreenScreen, SW48 cells)
Format: cell-based
condition-details: SW48 cells (high TDO expressing), 200 uM tryptophan, 24 hours; Table 3; read-out: TDO2 Cell Fluor EC50
Please map values of EC50 to classes as shown: low range: < 1 µM; mid range: ≥ 1 µM and < 10 µM; high range: ≥ 10 µM

Exam item: Could you place NS(=O)(=O)N1CCC2(CCC(C3c4ccccc4-c4cncn43)C2O)CC1 (single isomer, unassigned) [Example 182a] in its proper category? Many thanks.
Marked response: high range

Exam item: For the record CC1(O)CCC1C1c2ccccc2-c2cncn21 (single isomer, unassigned) [Example 35b] , report the class its EC50 corresponds to.
Marked response: low range

Exam item: Returns: class label. Input: NC(=O)c1ccc2c(c1)C(O)C(C1c3ccccc3-c3cncn31)CC2 (single isomer, unassigned) [Example 122c]
Marked response: high range

Exam item: # bin label for CNS(=O)(=O)N1CC[C@H]([C@H]2c3ccccc3-c3cncn32)[C@@H](O)C1 [Example 74a]
Marked response: mid range

Exam item: Which category fits this record: O[C@@H]1c2c(Cl)cnn2CC[C@@H]1[C@H]1c2ccccc2-c2cncn21 (single isomer, unassigned) [Example 160d]
Marked response: mid range

Exam item: Place this compound in its band: CS(=O)(=O)N1CCC(O)C(C2c3ccc(F)cc3-c3cncn32)C1 (single isomer, unassigned) [Example 118c]
Marked response: high range

Exam item: Bin? CC1(C)OCC(C2c3ccccc3-c3cncn32)C1O (single isomer, unassigned) [Example 85b]
Marked response: low range

Exam item: Which class is correct for the following compound? Cc1cnn2c1C(O)C(C1c3ccccc3-c3cncn31)CC2 (single isomer, unassigned) [Example 159d]
Marked response: mid range

Exam item: Band for the recorded EC50 of O[C@@H]1[C@@H]([C@H]2c3ccccc3-c3cncn32)CC12CCOCC2 [Example 57a] ?
Marked response: high range

Exam item: Dear colleague, I would appreciate it if you could identify the bin for CC(C)(C(N)=O)C(O)C1c2ccccc2-c2cncn21 (single isomer, unassigned) [Example 155d] and reply at your convenience.
Marked response: high range

Exam item: State the band of OC1c2cnccc2CCC1C1c2ccccc2-c2cncn21 (single isomer, unassigned) [Example 04a]
Marked response: mid range

----------
Record form. Attribute: pEC50. Fill in for each entry.
assayed-system: TDO2 (Homo sapiens, UniProt P48775)
Construct: decreased levels of NFK in SW48 cells (high TDO expressing cells)
Sequence (P48775 whole entry): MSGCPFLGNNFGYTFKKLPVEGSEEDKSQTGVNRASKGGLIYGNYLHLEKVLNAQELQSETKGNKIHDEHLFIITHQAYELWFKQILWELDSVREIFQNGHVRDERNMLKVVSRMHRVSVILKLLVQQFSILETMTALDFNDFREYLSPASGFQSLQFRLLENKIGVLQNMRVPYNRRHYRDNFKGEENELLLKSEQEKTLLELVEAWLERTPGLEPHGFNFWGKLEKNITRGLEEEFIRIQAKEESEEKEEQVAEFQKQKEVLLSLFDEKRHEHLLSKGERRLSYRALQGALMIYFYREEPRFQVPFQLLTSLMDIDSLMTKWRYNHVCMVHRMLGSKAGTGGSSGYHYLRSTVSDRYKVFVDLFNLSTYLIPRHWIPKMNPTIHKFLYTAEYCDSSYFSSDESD
measurement-notes: TDO2 cell assay (NFK GreenScreen, SW48 cells)
Assay type: cell-based
condition-details: SW48 cells (high TDO expressing), 200 uM tryptophan, 24 hours; Table 3; read-out: TDO2 Cell Fluor EC50
Answers are plain numbers, as −log10 of the molar value.

Here are 2 compounds together with their reported answers.
# compound, reading
rows = [
    ("OC1c2cncnc2CCC1C1c2ccccc2-c2cncn21 (single isomer, unassigned) [Example 94e]", 5.70),
    ("OC1CCCCCC1C1c2ccccc2-c2cncn21 (single isomer, unassigned) [Example 115d]", 7.00),
]

In the following, a different compound is considered.
Exam item: Name the recorded pEC50 of the item NC(=O)c1ccc2c(c1)C(O)C(C1c3ccccc3-c3cncn31)CC2 (single isomer, unassigned) [Example 122f] in your answer.
Marked response: 6.04
